The measured values listed here are drawn from ChEMBL document CHEMBL1149220.

System: Serine protease 1 (Homo sapiens, UniProt P07477) | Read-out: pIC50
Sequence (P07477 whole entry): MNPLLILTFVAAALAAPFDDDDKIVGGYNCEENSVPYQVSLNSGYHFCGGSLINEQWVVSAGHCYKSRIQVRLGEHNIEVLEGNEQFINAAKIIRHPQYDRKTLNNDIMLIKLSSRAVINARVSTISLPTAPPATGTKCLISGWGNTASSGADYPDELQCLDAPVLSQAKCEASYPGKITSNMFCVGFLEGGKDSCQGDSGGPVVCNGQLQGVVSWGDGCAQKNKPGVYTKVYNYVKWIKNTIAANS
pIC50: −log10 of the molar value.

A selection of reference data follows.
Cc1cc(C(=O)Nc2ccc(-c3ccccc3CN(C)C)cc2F)n(-c2cc3ccccc3cc2S(C)(=O)=O)n1 :: < 5.00
Cc1cc(C(=O)Nc2ccc(-c3ccccc3CN)cc2F)n(-c2cc3ccccc3cc2F)n1 :: < 5.00

API: the following record is the query input.
Input: Can you look up the measured pIC50 of Cc1cc(C(=O)Nc2ccc(-c3ccccc3CN(C)C)cc2F)n(-c2ccc3cc(Cl)ccc3c2)n1 for me?
Output: < 5.00

---

target: Coagulation factor X (Homo sapiens)
Sequence (P00742 41-179 limits assumed): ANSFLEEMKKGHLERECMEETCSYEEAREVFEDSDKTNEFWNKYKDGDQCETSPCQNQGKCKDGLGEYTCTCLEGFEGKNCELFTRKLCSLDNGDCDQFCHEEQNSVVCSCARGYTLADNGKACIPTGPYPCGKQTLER
Sequence (P00742 235-488 limits assumed): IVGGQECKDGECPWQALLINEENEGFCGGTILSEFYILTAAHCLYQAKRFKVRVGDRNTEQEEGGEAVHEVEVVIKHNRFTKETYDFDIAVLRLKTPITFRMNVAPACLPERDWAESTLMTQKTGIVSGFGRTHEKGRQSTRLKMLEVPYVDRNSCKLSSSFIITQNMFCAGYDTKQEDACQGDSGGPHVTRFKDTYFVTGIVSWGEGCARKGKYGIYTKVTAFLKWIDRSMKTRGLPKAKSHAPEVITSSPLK
pIC50: −log10 of the molar value.
Kind request: treat 8 as inclusive, so pIC50 at 8 or higher is 1 (yes), anything lower is 0 (no).

Cc1cc(C(=O)Nc2ccc(-c3ccccc3CN(C)C)cc2)n(-c2ccc3cc(Cl)ccc3c2)n1 :: 1 (yes)
Cc1cc(C(=O)Nc2ncc(-c3ccccc3S(N)(=O)=O)cn2)n(-c2cc3ccccc3cc2F)n1 :: 0 (no)
Cc1cc(C(=O)Nc2ccc(-n3nccn3)cc2)n(-c2ccc3cc(Cl)ccc3c2)n1 :: 0 (no)
Cc1cc(C(=O)Nc2ccc(-c3ccccc3S(N)(=O)=O)cc2F)n(-c2ccc3cc(Cl)ccc3c2)n1 :: 1 (yes)
Cc1cc(C(=O)Nc2ccc(-c3cccc(C(=N)N)c3)cc2)n(-c2ccc3cc(Cl)ccc3c2)n1 :: 0 (no)

Input: Exam item: decide whether the reported pIC50 for Cc1cc(C(=O)Nc2ccc(-c3ccncc3)cc2F)n(-c2ccc3cc(Cl)ccc3c2)n1 is at least 8.
Output: 0 (no)

Input: Similarly, Cc1cc(C(=O)Nc2ccc(N3CCCCCC3=O)cc2F)n(-c2cc3ccccc3cc2S(C)(=O)=O)n1 ?
Output: 0 (no)

---

target: Kallikrein-1 (Homo sapiens, UniProt P06870)
Sequence (P06870 whole entry): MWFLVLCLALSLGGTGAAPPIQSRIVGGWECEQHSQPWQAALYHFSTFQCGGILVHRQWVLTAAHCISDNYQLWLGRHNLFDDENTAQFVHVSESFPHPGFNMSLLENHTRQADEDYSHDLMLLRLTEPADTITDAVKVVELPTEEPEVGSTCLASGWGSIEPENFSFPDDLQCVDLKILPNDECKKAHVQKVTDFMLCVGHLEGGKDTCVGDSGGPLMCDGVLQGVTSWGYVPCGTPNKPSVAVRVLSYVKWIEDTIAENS
value.type: pIC50
Answers are plain numbers, as −log10 of the molar value.

Input: Endpoint output: pIC50 of Cc1cc(C(=O)Nc2ccc(-c3ccccc3CN(C)C)cc2F)n(-c2ccc3cc(Cl)ccc3c2)n1 . Value?
Output: 5.01

---

test.protocol: Volume of distribution in rat
Type: ADME, organism-based
test.context: in vivo
value.type: Vd (L/kg)
One number for each entry, in L/kg.

Completed entries (count: 4):
Cc1cc(C(=O)Nc2ccc(-c3ccccc3S(C)(=O)=O)cc2F)n(-c2cc3ccccc3cc2S(C)(=O)=O)n1 :: 2.6
Cc1cc(C(=O)Nc2ccc(-c3ccccc3CN(C)C)cc2F)n(-c2ccc3cc(Cl)ccc3c2)n1 :: 22.1
Cc1cc(C(=O)Nc2ccc(-c3ccccc3CN)cc2F)n(-c2cc3ccccc3cc2F)n1 :: 11
Cc1cc(C(=O)Nc2ccc(-c3ccccc3CN(C)C)cc2F)n(-c2cc3ccccc3cc2S(C)(=O)=O)n1 :: 27.3

Input: Record request: Vd value, item Cc1cc(C(=O)Nc2ccc(N3CCOCC3=O)cc2F)n(-c2cc3ccccc3cc2S(C)(=O)=O)n1
Output: 0.8

---

target: Coagulation factor X (Homo sapiens)
pKi: −log10 of the molar value.
The label depends only on pKi: Met if it is at least 9, Not met if it is smaller.

Cc1cc(C(=O)Nc2ccc(N3CCOCC3=O)cc2F)n(-c2cc3ccccc3cc2F)n1 :: Met

Input: Does pKi meet or surpass 9 for Cc1cc(C(=O)Nc2ccc(-n3ccnc3CN(C)C)cc2F)n(-c2cc3ccccc3cc2S(C)(=O)=O)n1 ?
Output: Not met
